# System: MS2 coat protein
# ASSAY: apparent Kd, MS2 coat protein; higher = weaker binding; RNA-MaP array; FMN 200 µM where present
# MEASUREMENT_CONDITIONS: ligand present: flavin mononucleotide; designed as: OFF switch for flavin mononucleotide
In this section we review reported apparent Kd values for a set of sequences.

CONSTRUCT_SEQUENCE	UNIT_SPEC	apparent Kd
CAGGUAGACUGAGGAUAUACAAUAAAGACCUAGUCUAUCUAGGUCUCCACAUGAGGAUCACCCAUGUAGAAGGCAGUCUGCCUG	nM	44.2
UUAUACAUGAGGAUCUCCCAUGACAUGAGGAUCACCCAUGUGCAGGAUAUACGUGUUAUAAUAUAGUAGAAGGGCAGUCUAUAU	nM	104
CAGUACUGAGGAUAUACAUGAGGAUCACCCAUGUGUUCCAGCUAGGAAACUAGCAGAAGUAGAAGGCAGUACUG	nM	441
UGACGGAGCAGAGGAUAUACAUGAGGAUCACCCAUGUAAGAUCUCCAGGAAACUGGAGAUCAAAUGUAGAAGGCUGCUCCGUCA	nM	56
UGACGGAGCUGAGGAUAUAUACAUGAGGAUCACCCAUGUAAGCUCCAGGAAACUGGAGCAAAUGUAUAGAAGGCAGCUCCGUCA	nM	48
GUAGAGUAAGGAUAUGAUGAAUAGGAUAGAAUGGUUAGAAAUCAGAAGGUACAUGAGGAUCACCCAUGUAAUGU	nM	20.8
CUCGGCGAGGGAGGAUAUCCCUAUGAGGCGGUGCAGCUCGGGAACAUGAGGAUCACCCAUGUAGCGGAGAAGGCCCAUACGCCU	nM	34.5
AGAGCCUCGUGAGGAUAUACAUGAGGAUCACCCAUGUAAUAAGAUCAACGGAGGAAACUCCGAAUGUAGAAGGCACGAGGCUCA	nM	423
ACGCUUUGGGAGAAGGUACGUUAAUUUUUUUCCACAUGAGGAUCACCCAUGUAAGGAUAUCCCGUCGUUAAAUAGGCUACAGCA	nM	9.37
UGUGCUAUGUAGAAGGCAGAUCUGAUUCAGAUCUGAGGAUAUACAUGAGGAUCACCCAUGUUAUGCACCAGCACGAGAGUGCAA	nM	16
GUGUAGAUAGGAUAUGCAAGAGUCUAGCGAAGCUAGAUUCUACAUGAGGAUCACCCAUGUAGAAGGGUCUACAC	nM	16.1
GCCGUAAAUGUGAGGAUAUACCUAUGGAAACAUAGGUAGAAGGCACAUGAGGAUCACCCAUGUCCUUAAUCGGC	nM	406
UGUCGGACCAGAGGAUAUUACAUGAGGAUCACCCAUGUAUGAACCAAUAGCUGGAAACAGCAAUGUAAGAAGGCUGCUCCGACA	nM	105
UUCCGGCGUGUAGGAUAUGGAUCCGAUUAGGAUCCAGAAGGACAUGAGGAUCACCCAUGUACAUGUAAACAGUCAUCACCGGAA	nM	7.65
AAACCUAUAGGAUAUACAUGAGGAUCACCCAUGUUGCGAUUUUUUAGGUAACAGAUCCGUAGAAGGGUAGGUCA	nM	66.6
GGUGCGUAUGUGAGGAUAUGCUGGUCCUUGGCUCGGCAGAAGGCACAUGAGGAUCACCCAUGUGGUGUCGUGCC	nM	37.7
UUUAUUUUGCAAGGAUAUGUUUAAUUUUAGUUUCCUUACACAUGAGGAUCACCCAUGUUAUACUUACAGAAGGUGCAUAAUUUU	nM	94.6
GAAUAAUUGAUCCUUUUUUAUUACAUGAGGAUCACCCAUGUGCAGGAUAUCGAUUGUUGUAGUUUCGAGAAGGGCAAGAACUGU	nM	280
UCUGCCGCCGUGAGGAUAUGCCCAAAUAAAAGCGGGCAGAAGGCACAUGAGGAUCACCCAUGUCCCGCGGUUUU	nM	38.4
UGCAUGGUAGGAUAUACGGAGCAUUAGGGUUUGUUAUGUGGACAUGAGGAUCACCCAUGUAGAAGGGCCGUGCU	nM	57.1
AAAAAUGGAGGAUAUACAUGAGGAUCACCCAUGUGUGGCUAUACUAUGUGCUCGUCAGGUAGAAGGCCAAAAAA	nM	59.2
UUCUUGGCAGGAUAUGCUCUCUUAGACAUGAGGAUCACCCAUGUGUUCAUUCUUUCUUUUGCAGAAGGGCCUUAAU	nM	69.9
AAAGUGUGAGGAUAUCCUGGGCUGGGCCGGGAGGUUCGGUUGGAGAAGGCACAUGAGGAUCACCCAUGUAACGG	nM	53.4
GGACGCUAAGGAUAUACAUGAGGAUCACCCAUGUAGCCCGAAAGGGCGCGUUCCUUCUGUAGAAGGUGGCUAAA	nM	25.4
GUCCCAGCUGAGGAUAUUAUCUGGCUCGACCGAUAAGAAGGCAGUACAUGAGGAUCACCCAUGUGGUUCGUUCG	nM	70.7
UGUCGGAGCAGAGGAUAUUACAUGAGGAUCACCCAUGUAUGAACCAAUAGCUGGAAACAGCAAUGUAAGAAGGCUGCUCCGAUA	nM	166
